B1: Double-stranded RNA-binding protein Staufen homolog 1, residues 183 to 249; numbered along this chain, O95793 (parent)
chain: KSEISQVFEIALKRNLPVNFEVARESGPPHMKNFVTKVSVGEFVGEGEGKSKKISKKNAAIAVLEEL

- Variants of: B1
- PROTOCOL: abundance fitness (aPCA) (normalised: wild type 0, dead -1); higher = more abundant; growth selection in yeast, the domain comes from the species named
- STATED_CONDITIONS: Homo sapiens
Classify by abundance fitness. Ranges: low: < -0.6; mid: ≥ -0.6 and < -0.2; high: ≥ -0.2

Example entries begin here.
N15Y ... low
V38G ... mid
P28F ... mid
V7M ... mid
S2E ... mid

## Input Category lookup for the variant T36P
## Output low

## Input Hey, which category is R24I in, do you know?
## Output high

## Input Which category does the recorded abundance fitness put G27F in?
## Output mid

## Input # bin lookup: classify G27D by its abundance fitness
## Output mid

## Input Class label required: G45T
## Output mid

## Input Into which bin does this variant go? V40K
## Output low
